Data credit: patent US20050197338A1

- subject.of.test: Rat IKK-2 (Rattus norvegicus, UniProt Q9QY78)
- Sequence (Q9QY78 1-757): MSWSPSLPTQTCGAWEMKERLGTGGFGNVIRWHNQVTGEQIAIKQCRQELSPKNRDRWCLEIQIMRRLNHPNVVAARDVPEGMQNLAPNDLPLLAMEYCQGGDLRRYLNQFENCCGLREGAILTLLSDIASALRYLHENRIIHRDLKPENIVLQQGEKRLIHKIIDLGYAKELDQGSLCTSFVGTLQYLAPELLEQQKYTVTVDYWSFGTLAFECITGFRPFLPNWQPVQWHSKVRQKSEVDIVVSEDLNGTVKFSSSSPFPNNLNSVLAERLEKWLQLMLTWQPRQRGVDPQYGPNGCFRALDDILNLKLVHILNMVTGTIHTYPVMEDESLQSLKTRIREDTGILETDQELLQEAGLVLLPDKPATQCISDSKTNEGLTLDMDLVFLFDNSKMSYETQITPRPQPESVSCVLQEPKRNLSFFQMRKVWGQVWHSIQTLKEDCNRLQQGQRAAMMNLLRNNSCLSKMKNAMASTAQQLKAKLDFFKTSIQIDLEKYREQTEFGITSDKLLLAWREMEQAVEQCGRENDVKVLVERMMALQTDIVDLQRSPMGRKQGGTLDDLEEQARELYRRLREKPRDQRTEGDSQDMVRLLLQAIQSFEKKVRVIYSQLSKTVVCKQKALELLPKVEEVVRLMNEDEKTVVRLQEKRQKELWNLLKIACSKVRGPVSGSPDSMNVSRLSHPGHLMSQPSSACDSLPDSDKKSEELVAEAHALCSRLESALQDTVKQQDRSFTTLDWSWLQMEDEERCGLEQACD
- assay.procedure: Rat IKK-2 enzyme assay
- Format: biochemical
- condition.summary: read-out: IC50 (μM) rIKK-2
Each item that follows carries a reported IC50.

Would you please look over these solved cases?
[[record]]
chemical_string = "Cc1cc(-n2cc(NC(N)=O)c(C(N)=O)n2)ccc1Sc1cccc(F)c1"
result = "2.33 µM"

[[record]]
chemical_string = "NC(=O)Nc1cn(-c2cccc(O)c2)nc1C(N)=O"
result = "0.378 µM"

[[record]]
chemical_string = "Cc1cccc(-n2cc(NC(N)=O)c(C(N)=O)n2)c1"
result = "0.632 µM"

[[record]]
chemical_string = "NC(=O)Nc1cn(-c2ccc(Sc3cccc(Br)c3)cc2)nc1C(N)=O"
result = "4.82 µM"


With those in mind, consider the next compound.
Record Cc1cccc(Sc2ccc(-n3cc(NC(N)=O)c(C(N)=O)n3)cc2)c1 . Reported IC50: 4.16 µM

----------
- subject.of.test: human IKK-2 (rhIKK-2 homodimer) (Homo sapiens, UniProt O14920)
- Construct: FLAG (DYKDDDDKD) (C); made in house; host or cells: insect cells (baculovirus, pFastBac)
- Sequence (O14920 1-756): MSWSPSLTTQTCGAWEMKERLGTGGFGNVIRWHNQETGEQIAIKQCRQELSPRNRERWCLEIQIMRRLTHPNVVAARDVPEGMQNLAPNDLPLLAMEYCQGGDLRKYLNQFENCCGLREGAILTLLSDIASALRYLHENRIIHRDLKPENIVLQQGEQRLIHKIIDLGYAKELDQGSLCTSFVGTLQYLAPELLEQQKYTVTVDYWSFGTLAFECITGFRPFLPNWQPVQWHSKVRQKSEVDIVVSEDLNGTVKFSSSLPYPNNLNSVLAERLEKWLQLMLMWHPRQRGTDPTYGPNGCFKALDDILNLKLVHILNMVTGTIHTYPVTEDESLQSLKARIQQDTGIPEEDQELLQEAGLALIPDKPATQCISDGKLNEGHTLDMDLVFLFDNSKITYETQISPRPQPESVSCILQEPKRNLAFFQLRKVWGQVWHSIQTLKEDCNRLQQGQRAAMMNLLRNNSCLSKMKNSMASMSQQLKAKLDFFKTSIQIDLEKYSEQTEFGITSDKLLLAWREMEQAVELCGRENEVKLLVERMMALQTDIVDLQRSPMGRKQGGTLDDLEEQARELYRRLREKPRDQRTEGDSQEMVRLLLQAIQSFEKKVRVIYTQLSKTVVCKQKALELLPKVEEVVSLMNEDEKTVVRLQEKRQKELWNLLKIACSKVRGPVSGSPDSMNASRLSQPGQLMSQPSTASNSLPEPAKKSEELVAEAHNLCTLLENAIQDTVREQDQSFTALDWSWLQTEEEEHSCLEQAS
- assay.procedure: IKK-2 Resin Enzyme Assay (Human IKK-2 Enzyme Assay)
- Format: biochemical
- condition.summary: human IKK-2, resin enzyme assay; read-out: IC50 (μM) hIKK-2
measured.quantity: IC50 (µM)
Could you give me the number in µM? Just the number is fine.

[[record]]
chemical_string = "NC(=O)Nc1cn(-c2ccc(-c3cccc(Cl)c3Cl)cc2)nc1C(N)=O"
measured_quantity = "IC50"
measured_number = 1.63

[[record]]
chemical_string = "N#CCOc1ccccc1-c1ccc(-n2cc(NC(N)=O)c(C(N)=O)n2)cc1"
measured_quantity = "IC50"
measured_number = 0.5

[[record]]
chemical_string = "NC(=O)Nc1cn(-c2ccc(-c3cccc(-n4cccn4)c3)cc2)nc1C(N)=O"
measured_quantity = "IC50"
measured_number = 1.79

[[record]]
chemical_string = "COC(=O)c1ccc(-c2ccc(-n3cc(NC(N)=O)c(C(N)=O)n3)cc2)c(N)c1"
measured_quantity = "IC50"
measured_number = 0.53

[[record]]
chemical_string = "CS(=O)(=O)Nc1ccc(-c2cccc(-n3cc(NC(N)=O)c(C(N)=O)n3)c2)cc1"
measured_quantity = "IC50"
measured_number = 1.64

[[record]]
chemical_string = "NC(=O)Nc1cn(-c2ccc(-c3cccc(O)c3)cc2F)nc1C(N)=O"
measured_quantity = "IC50"
measured_number = 0.457

[[record]]
chemical_string = "CNC(=O)CCc1cccc(-c2ccc(-n3cc(NC(N)=O)c(C(N)=O)n3)cc2)c1"
measured_quantity = "IC50"
measured_number = 0.42

[[record]]
chemical_string = "Cc1cc(-c2cccc(-n3cc(NC(N)=O)c(C(N)=O)n3)c2)ccn1"
measured_quantity = "IC50"
measured_number = 0.59

[[record]]
chemical_string = "Cc1cc(-c2ccccc2O)ccc1-n1cc(NC(N)=O)c(C(N)=O)n1"
measured_quantity = "IC50"
measured_number = 13.2

[[record]]
chemical_string = "CCc1cc(-c2cccc(O)c2)ccc1-n1cc(NC(N)=O)c(C(N)=O)n1"
measured_quantity = "IC50"
measured_number = 12.6


With those in mind, consider the next compound.
Record NC(=O)Nc1cn(-c2ccc(Sc3ccc(F)cc3)cc2Cl)nc1C(N)=O . Reported IC50: 0.31
